Taken from patent US20220332795A1.

- ASSAYED SYSTEM: T1, recombinant biotinylated human CD71 extracellular domain (human, UniProt P02786 89-760, biotinylated)
- T1 construct: extracellular domain; also called hCD71; huCD71 ECD
- T1 sequence (P02786 other isoform, or with tags, fused parts or gaps): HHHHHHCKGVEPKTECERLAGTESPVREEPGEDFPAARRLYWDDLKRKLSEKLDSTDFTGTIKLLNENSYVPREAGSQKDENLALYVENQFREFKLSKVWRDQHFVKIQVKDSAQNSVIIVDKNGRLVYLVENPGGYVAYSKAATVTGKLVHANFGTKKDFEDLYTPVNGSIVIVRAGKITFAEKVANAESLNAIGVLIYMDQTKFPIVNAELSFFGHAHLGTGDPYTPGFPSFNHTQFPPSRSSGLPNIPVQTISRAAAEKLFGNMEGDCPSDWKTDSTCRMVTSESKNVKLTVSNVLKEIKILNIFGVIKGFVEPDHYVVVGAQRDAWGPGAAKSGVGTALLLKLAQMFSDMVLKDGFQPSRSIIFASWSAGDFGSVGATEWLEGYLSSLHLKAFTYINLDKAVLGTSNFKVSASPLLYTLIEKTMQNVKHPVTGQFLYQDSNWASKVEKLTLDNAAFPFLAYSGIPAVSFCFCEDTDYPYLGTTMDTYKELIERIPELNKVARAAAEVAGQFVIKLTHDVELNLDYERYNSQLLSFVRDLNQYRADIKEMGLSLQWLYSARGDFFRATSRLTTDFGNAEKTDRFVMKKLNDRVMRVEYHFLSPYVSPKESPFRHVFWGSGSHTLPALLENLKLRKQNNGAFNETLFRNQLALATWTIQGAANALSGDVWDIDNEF
- MEASUREMENT PROTOCOL: solution ELISA, signal ratio to HSA
ASSAY ENDPOINT: hCD71:HSA

Field: example entries. Status: answers known.
BINDER	VALUE REPORTED
SEQ ID NO 192 (designed binder, FN3 domain) MLPAPKNLVVSRVTEDSARLSWTAPDAAFDSFDIGYTEYGGYGEAIYLSVPGSERSYDLTGLKPGTEYWVLIQGVKGGGSSVPLSAIFTT	79.9
SEQ ID NO 190 (designed binder, FN3 domain) MLPAPKNLVVSRVTEDSARLSWTAPDAAFDSFYIAYAEPRPDGEAISLDVPGSERSYDLTGLKPGTEYSVLIHGVKGGLLSSPLEASFTT	16.4
SEQ ID NO 158 (designed binder, FN3 domain) MLPAPKNLVVSRVTEDSARLSWTAPDAAFDSFYIAYAEPRPDGEAIILQVPGSERSYDLTGLKPGTEYSVLIHGVKGGLLSSPLSAVFTT	312
SEQ ID NO 114 (designed binder, FN3 domain) MLPAPKNLVVSRVTEDSARLSWTTPDAAFDSFFIGYLEPQPPGEAISLQVPGSERSYDLTGLKPGTEYNVTIQGVKGGFPSSPLFAVFTT	121
SEQ ID NO 123 (designed binder, FN3 domain) MLPAPKNLVVSRVTEDSARLSWTAPDAAFDSFFIGYLEPQPPGEAIQLWVPGSERSYDLTGLKPGTEYNVTIQGVKGGFPSHPLGAVFTT	42.7

a. SEQ ID NO 135 (designed binder, FN3 domain) MLPAPKNLVVSRVTEDSARLSWTAPDAAFDSFYIAYAEPRPDGEAIQLAVPGSERSYDLTGLKPGTEYSVLIHGVKGGLLSSPLHAFFTT
b. SEQ ID NO 104 (designed binder, FN3 domain) MLPAPKNLVVSRVTEDSARLSWTAPDAAFDSFYIAYAEPRPDGEAISLLVPGSERSYDLTGLKPGTEYSVLIHGVKGGLLSSPLYAVFTT
c. SEQ ID NO 163 (designed binder, FN3 domain) MLPAPKNLVVSRVTEDSARLSWTAPDAAFDSFFIGYLEPQPPGEAIYLEVPGSERSYDLTGLKPGTEYNVTIQGVKGGFPSFPLKAAFTT
Incoming: Hi! Can you put these in order of hCD71:HSA, lowest number first? State the ranking by listing the labels in the requested order.
Outgoing: c, a, b
